molecular target: TYK2 (Homo sapiens); test: TYK2 protein degradation in MOLT-4 cells by immunoblotting; type: cell-based; set-up: endogenous in cells; host or cells: MOLT-4; settings: MOLT-4 cells, 5 μM, 24 hours
measurement.label: TYK2 Degradation (5 μM)

Ask: Please look up its TYK2 Degradation (5 μM): CNC(=O)c1nnc(NC(=O)CNC(=O)CCCCCNc2cccc3c2C(=O)N(C2CCC(=O)NC2=O)C3=O)cc1Nc1cccc(-c2ncn(C)n2)c1OC (stereo not drawn)
Reply: ≤20%

Others:
Ask: Please look up its TYK2 Degradation (5 μM): CNC(=O)c1nnc(NC(=O)CNC(=O)CCCC(=O)N[C@H](C(=O)N2C[C@H](O)C[C@H]2C(=O)NCc2ccc(-c3scnc3C)cc2)C(C)(C)C)cc1Nc1cccc(-c2ncn(C)n2)c1OC
Reply: ≤20%

Ask: Also CNC(=O)c1nnc(NC(=O)C2CC2)cc1Nc1cccc(-c2ncn(CCNC(=O)CCOCCOCCOCCC(=O)N[C@H](C(=O)N3C[C@H](O)C[C@H]3C(=O)NCc3ccc(-c4scnc4C)cc3)C(C)(C)C)n2)c1OC ?
Reply: ≤20%

* * *

Measured TYK2 Degradation (5 μM) of individual entries
target: TYK2 (Homo sapiens, UniProt P29597); assay: TYK2 protein degradation in MOLT-4 cells by immunoblotting; format: cell-based; parameters: endogenous in cells; host or cells: MOLT-4; details: MOLT-4 cells, 5 μM, 24 hours
Sequence (P29597 whole entry): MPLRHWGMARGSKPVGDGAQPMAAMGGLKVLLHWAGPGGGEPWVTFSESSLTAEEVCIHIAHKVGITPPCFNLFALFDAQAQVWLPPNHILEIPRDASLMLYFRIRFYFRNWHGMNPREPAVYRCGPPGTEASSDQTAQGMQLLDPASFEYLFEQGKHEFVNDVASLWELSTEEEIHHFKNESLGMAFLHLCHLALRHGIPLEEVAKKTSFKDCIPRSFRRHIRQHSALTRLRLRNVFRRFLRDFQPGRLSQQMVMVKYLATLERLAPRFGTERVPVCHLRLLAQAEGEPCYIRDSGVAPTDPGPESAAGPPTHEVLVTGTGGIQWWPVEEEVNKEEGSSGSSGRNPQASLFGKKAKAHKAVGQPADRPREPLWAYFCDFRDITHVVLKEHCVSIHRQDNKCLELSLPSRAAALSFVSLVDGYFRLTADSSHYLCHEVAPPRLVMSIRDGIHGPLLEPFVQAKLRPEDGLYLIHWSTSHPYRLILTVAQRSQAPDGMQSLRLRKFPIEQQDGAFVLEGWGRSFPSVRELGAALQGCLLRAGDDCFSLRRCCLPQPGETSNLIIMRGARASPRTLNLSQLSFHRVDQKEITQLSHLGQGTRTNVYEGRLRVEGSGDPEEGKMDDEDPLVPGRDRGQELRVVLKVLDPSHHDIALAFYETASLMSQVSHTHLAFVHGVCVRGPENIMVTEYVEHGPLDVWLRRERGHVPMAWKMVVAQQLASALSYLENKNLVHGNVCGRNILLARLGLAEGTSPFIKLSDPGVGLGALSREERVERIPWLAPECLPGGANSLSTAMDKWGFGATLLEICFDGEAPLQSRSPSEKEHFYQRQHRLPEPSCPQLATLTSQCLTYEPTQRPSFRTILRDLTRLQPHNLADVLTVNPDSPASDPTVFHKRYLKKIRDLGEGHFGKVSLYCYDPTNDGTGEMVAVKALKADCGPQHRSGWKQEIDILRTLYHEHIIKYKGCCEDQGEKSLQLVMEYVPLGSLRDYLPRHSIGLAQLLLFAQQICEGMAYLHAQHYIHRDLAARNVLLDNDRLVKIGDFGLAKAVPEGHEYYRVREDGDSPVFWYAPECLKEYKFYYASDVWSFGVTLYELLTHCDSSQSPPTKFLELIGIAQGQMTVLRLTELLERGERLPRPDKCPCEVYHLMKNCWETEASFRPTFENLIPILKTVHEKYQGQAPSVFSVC
Dear colleague, please return just the value in %, with no unit written.

Ask: Please look up its TYK2 Degradation (5 μM): CNC(=O)c1nnc(NC(=O)CNC(=O)CCCCCCCCCC(=O)N[C@H](C(=O)N2C[C@H](O)C[C@H]2C(=O)NCc2ccc(-c3scnc3C)cc2)C(C)(C)C)cc1Nc1cccc(-c2ncn(C)n2)c1OC [CPD-041]
Reply: 30

API: the following record is the query input.
Ask: Please look up its TYK2 Degradation (5 μM): CNC(=O)c1nnc(NC(=O)CNC(=O)CCCCCC(=O)N[C@H](C(=O)N2C[C@H](O)C[C@H]2C(=O)NCc2ccc(-c3scnc3C)cc2)C(C)(C)C)cc1Nc1cccc(-c2ncn(C)n2)c1OC [CPD-037]
Reply: 30

* * *

target: UniProt P29597; test: TYK2 protein degradation in MOLT-4 cells by immunoblotting; assay type: cell-based; set-up: endogenous in cells; host or cells: MOLT-4; details: MOLT-4 cells, 5 μM, 24 hours
measurement.label: TYK2 Degradation (5 μM)

Worked set:
Ask: Please look up its TYK2 Degradation (5 μM): CNC(=O)c1nnc(NC(=O)CNC(=O)CCCCCCCCC(=O)N[C@H](C(=O)N2C[C@H](O)C[C@H]2C(=O)NCc2ccc(-c3scnc3C)cc2)C(C)(C)C)cc1Nc1cccc(-c2ncn(C)n2)c1OC
Reply: 60%

Ask: Also CNC(=O)c1nnc(NC(=O)CNC(=O)CCCCCCNc2cccc3c2C(=O)N(C2CCC(=O)NC2=O)C3=O)cc1Nc1cccc(-c2ncn(C)n2)c1OC (stereo not drawn) ?
Reply: ≤20%

Others:
Ask: Please look up its TYK2 Degradation (5 μM): CNC(=O)c1nnc(NC(=O)CNC(=O)CCOCCOCCOCCOCCNc2ccc3c(c2)C(=O)N(C2CCC(=O)NC2=O)C3=O)cc1Nc1cccc(-c2ncn(C)n2)c1OC (stereo not drawn)
Reply: ≤20%
